target-under-test: GAL4 DBD-CfEcR(DEF)/VP16AD-MmRXRE (Choristoneura fumiferana)
assay-text: cell-based
test-settings: read-out: 13B3 EC50; average; dose response, three-parameter logistic model
pEC50: −log10 of the molar value.
Give pEC50 for every item shown.

Which pEC50 is reported for this compound? COc1cccc(C(=O)NC2(C(=O)c3ccccc3)CCCC2)c1C [Example 1] < 4.48

Look at this compound and give its reported pEC50. COc1cc(C(=O)C2(NC(=O)c3cccc(OC)c3C)CCCC2)cc(OC)c1C [Example 65] ~4.70

----------
target-under-test: GAL4 DBD (1-147)-CfEcR(DEF)/VP16AD-βRXREF-LmUSPEF (Choristoneura fumiferana, UniProt O77240)
Sequence (O77240 191-513): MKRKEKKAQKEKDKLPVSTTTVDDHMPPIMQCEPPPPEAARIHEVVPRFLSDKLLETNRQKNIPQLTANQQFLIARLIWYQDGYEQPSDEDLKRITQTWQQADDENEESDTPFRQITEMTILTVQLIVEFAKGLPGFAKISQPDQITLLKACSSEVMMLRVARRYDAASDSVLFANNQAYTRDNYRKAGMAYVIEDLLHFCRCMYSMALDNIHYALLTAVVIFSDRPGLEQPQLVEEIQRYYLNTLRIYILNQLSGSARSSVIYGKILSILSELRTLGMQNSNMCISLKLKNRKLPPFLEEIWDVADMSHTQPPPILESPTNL
Sequence (P28702 296-455 partner limits assumed): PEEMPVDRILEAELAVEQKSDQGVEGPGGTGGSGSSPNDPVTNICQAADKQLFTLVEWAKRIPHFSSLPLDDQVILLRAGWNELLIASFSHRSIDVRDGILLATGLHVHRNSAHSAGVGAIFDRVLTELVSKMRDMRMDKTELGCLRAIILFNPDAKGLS
assay-text: 27-63 assay: luciferase reporter gene expression in stable CHO cell clone 27-63
test-settings: maximum fold induction at any concentration relative to that of GS-E ligand
One threshold, 0.07, splits the recorded 27-63 Rel Max FI values: lower ones are y, equal or higher ones are n.

Answer whether the compound COC(=O)CN1CCCC(NC(=O)c2cccc(OC)c2C)(C(=O)c2cc(C)cc(C)c2)C1 (racemic) [Example 156] has 27-63 Rel Max FI strictly less than 0.07 y

is_below(27-63 Rel Max FI, 0.07) for COc1cccc(C(=O)NC2(C(=O)c3cc(C)cc(C)c3)CCS(=O)(=O)CC2)c1C [Example 62] ? y

Field: below-cutoff. Rule: recorded 27-63 Rel Max FI strictly less than 0.07. Subject: COc1cccc(C(=O)NC(C)(C(=O)c2ccccc2C)C(C)C)c1C (stereo not shown) [Example 63] n

Regarding COc1cccc(C(=O)NC2(C(=O)c3cccc(C)c3)CCSCC2)c1C [Example 26] , kindly confirm whether its 27-63 Rel Max FI is beneath 0.07. n

In the record for COc1cccc(C(=O)NC2(C(=O)c3cc(C)cc(C)c3)CCCCCC2)c1C [Example 71] , is 27-63 Rel Max FI less than 0.07? n

I'd appreciate it if you could check whether COc1cccc(C(=O)NC2(C(=O)c3ccc(F)cc3)CCCC2)c1C [Example 42] has 27-63 Rel Max FI smaller than 0.07. y

Given the entry COc1cccc(C(=O)NC2(C(=O)c3cc(C)cc(C)c3)CCC2)c1C [Example 14] , would its reported 27-63 Rel Max FI be below 0.07? n

Please let me know if COc1cccc(C(=O)C(C)(NC(=O)c2cccc(OC)c2C)C(C)C)c1 (stereo not shown) [Example 32] shows 27-63 Rel Max FI below 0.07. y

Here's an entry: Cc1ccccc1C(=O)NC1(C(=O)c2ccccc2)CCCC1 [Example 140] . Is its 27-63 Rel Max FI below 0.07? y

----------
target-under-test: Bombyx mori EcR (VP16 fusion, switch construct CVBE) with 6XEcRE LacZ reporter (Bombyx mori, UniProt P49881)
Construct: expressed in transfected cells; host or cells: Human 293 kidney (HEK-293) cells, retrovirally infected, clone Z3
Sequence (P49881 86-606 limits assumed): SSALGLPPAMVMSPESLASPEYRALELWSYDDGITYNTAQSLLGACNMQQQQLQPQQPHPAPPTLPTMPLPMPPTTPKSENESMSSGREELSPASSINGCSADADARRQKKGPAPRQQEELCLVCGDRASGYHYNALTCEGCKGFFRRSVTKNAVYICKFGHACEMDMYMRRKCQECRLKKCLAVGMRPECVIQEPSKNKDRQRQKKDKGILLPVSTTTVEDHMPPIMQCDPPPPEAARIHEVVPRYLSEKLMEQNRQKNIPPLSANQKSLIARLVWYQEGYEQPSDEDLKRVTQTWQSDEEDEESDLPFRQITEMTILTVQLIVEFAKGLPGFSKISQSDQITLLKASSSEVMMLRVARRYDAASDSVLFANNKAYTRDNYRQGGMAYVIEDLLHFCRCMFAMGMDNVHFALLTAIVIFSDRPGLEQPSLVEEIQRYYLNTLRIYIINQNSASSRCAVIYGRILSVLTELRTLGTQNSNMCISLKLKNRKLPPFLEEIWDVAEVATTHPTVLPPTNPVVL
Sequence (P19793 whole entry partner, the tested form may be a part): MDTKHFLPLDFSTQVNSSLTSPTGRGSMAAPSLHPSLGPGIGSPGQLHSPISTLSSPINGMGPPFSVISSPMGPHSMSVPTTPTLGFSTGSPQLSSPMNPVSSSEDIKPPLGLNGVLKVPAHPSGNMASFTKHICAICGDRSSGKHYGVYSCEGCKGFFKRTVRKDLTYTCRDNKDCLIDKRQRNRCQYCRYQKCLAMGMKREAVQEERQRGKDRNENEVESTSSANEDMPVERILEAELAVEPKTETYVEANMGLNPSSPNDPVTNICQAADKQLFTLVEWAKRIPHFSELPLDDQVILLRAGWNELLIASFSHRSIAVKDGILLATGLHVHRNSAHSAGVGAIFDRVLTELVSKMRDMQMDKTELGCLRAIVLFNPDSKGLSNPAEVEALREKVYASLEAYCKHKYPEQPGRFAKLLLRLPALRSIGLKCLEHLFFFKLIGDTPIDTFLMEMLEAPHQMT
assay-text: Z3 assay: β-galactosidase (LacZ) reporter gene fold induction in stably transformed human 293 kidney cells (clone Z3)
Type: cell-based
test-settings: single dose 33 μM; ligand treated / DMSO treated cells
measurement-label: Fold Induction Average, Z3 Assay (33 μM)
Just the number, please, no unit after it.

Which Fold Induction Average, Z3 Assay (33 μM) value is on record for COc1cccc(C(=O)NC2(C(=O)c3cc(C)cc(C)c3)CCCCCC2)c1C ? 952

What value of Fold Induction Average, Z3 Assay (33 μM) has been recorded for this entry: COc1cccc(C(=O)NC2(C(=O)c3cccc(C)c3)CCC3(CC2)OCCO3)c1C 9

Reported Fold Induction Average, Z3 Assay (33 μM), compound COc1cccc(C(=O)C(C)(C)NC(=O)c2ccccc2OC)c1 : ____ 1

Requested read-out: Fold Induction Average, Z3 Assay (33 μM). Entry: COc1cccc(C(=O)NC2(C(=O)c3ccc(C)cc3)CC2)c1C 11

Name the recorded Fold Induction Average, Z3 Assay (33 μM) for COc1ccc(C(=O)C2(NC(=O)c3cccc(OC)c3C)CCCC2)cc1 . 4

Which Fold Induction Average, Z3 Assay (33 μM) is listed for COc1ccc(C(=O)C(C)(CC(C)C)NC(=O)c2cccc(OC)c2C)cc1 (stereo not drawn) ? 1

So what does the record say about Fold Induction Average, Z3 Assay (33 μM) for COc1cc(C(=O)C2(NC(=O)c3cccc(OC)c3C)CCCC2)cc(OC)c1C ? 151

What value of Fold Induction Average, Z3 Assay (33 μM) has been recorded for this entry: CC(C)(NC(=O)c1ccc(Cl)cc1)C(=O)c1ccccc1 4

What value of measured Fold Induction Average, Z3 Assay (33 μM) is listed for CCc1ccc(C(=O)NC(C)(C)C(=O)c2ccccc2)cc1 ? 2

Form field: reported Fold Induction Average, Z3 Assay (33 μM) of COc1cccc(C(=O)NC(C)(C(=O)c2ccc3c(c2)OCO3)C(C)C)c1C (stereo not drawn) 1

Could you share which Fold Induction Average, Z3 Assay (33 μM) value was measured for COc1cccc(C(=O)NC2(C(=O)c3cc(C)cc(C)c3)CCCN(C(=O)OC(C)(C)C)C2)c1C (racemic) ? 1

Recorded Fold Induction Average, Z3 Assay (33 μM) for CC(=O)NC(C(=O)c1ccccc1)c1ccccc1 (stereo not drawn) , please? 1

// returns reported Fold Induction Average, Z3 Assay (33 μM) for input COc1cccc(C(=O)NC2(C(=O)c3ccccc3C)CC2)c1C 2

Which Fold Induction Average, Z3 Assay (33 μM) value belongs to COc1cccc(C(=O)C2(NC(=O)c3cccc(OC)c3C)CC2)c1 ? 1

What Fold Induction Average, Z3 Assay (33 μM) value was documented for this compound, CCC(CC)(NC(=O)c1cccc(OC)c1C)C(=O)c1ccc2c(c1)OCO2 ? 2

State the recorded Fold Induction Average, Z3 Assay (33 μM) for this entry: Cc1cccc(C(=O)NC(C(=O)c2ccccc2)C(C)(C)C)c1C (stereo not drawn) 1

Suppose we examine the compound COc1cccc(C(=O)NC2(C(=O)c3cc(C)cc(C)c3)CCN(C(=O)OC(C)(C)C)CC2)c1C ; what Fold Induction Average, Z3 Assay (33 μM) value has been reported? 1

Look at this compound and give its reported Fold Induction Average, Z3 Assay (33 μM). Cc1ccccc1C(=O)NC(C)(C)C(=O)c1ccccc1 1

----------
Please respond with reported Fold Induction Average, 27-63 Assay (33 μM) for every item in the list.
target-under-test: GAL4 DBD (1-147)-CfEcR(DEF)/VP16AD-βRXREF-LmUSPEF (Choristoneura fumiferana, UniProt O77240)
assay-text: 27-63 assay: luciferase reporter gene expression in stable CHO cell clone 27-63
test-settings: single dose 33 μM; RLU ligand treated / RLU DMSO treated cells
A bare number is all that is needed in reply.

Look at this compound and give its reported Fold Induction Average, 27-63 Assay (33 μM). CCNC(=O)N1CCCC(NC(=O)c2cccc(OC)c2C)(C(=O)c2cc(C)cc(C)c2)C1 (racemic) 1

Given COc1ccccc1C(=O)C(C)(NC(=O)c1cccc(OC)c1C)c1ccc(F)cc1 (stereo not shown) , state its recorded Fold Induction Average, 27-63 Assay (33 μM). 1

Could you share which Fold Induction Average, 27-63 Assay (33 μM) value was measured for CCOC(=O)C(=O)N1CCCC(NC(=O)c2cccc(OC)c2C)(C(=O)c2cc(C)cc(C)c2)C1 (racemic) ? 2

Query: Fold Induction Average, 27-63 Assay (33 μM); subject: COC(=O)CN1CCCC(NC(=O)c2cccc(OC)c2C)(C(=O)c2cc(C)cc(C)c2)C1 (racemic) 3

For the compound COc1cccc(C(=O)NC2(C(=O)c3cc(C)cc(C)c3)CCN(CC#N)CC2)c1C , what Fold Induction Average, 27-63 Assay (33 μM) is on record? 1

Bench note: what Fold Induction Average, 27-63 Assay (33 μM) did COc1cccc(C(=O)NC2(C(=O)c3cc(C)cc(C)c3)CCCN(C(=O)OC(C)(C)C)C2)c1C (racemic) show? 1

# query: Fold Induction Average, 27-63 Assay (33 μM) of entry CCOC(=O)CN1CCC(NC(=O)c2cccc(OC)c2C)(C(=O)c2cc(C)cc(C)c2)CC1 3
